Test system: K4 kissing-loop RNA reporter;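 further: bound reporter read as fluorescence of individual clusters on recovered sequencing chips by microscopy, with normalized cluster intensities fitted with a binding model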
Assay: apparent KD of K4 kissing-loop reporter; higher = weaker reporter binding
Conditions: Eterna round: R107; input ligand: theophylline 20 uM
Outcome: TRUE for apparent KD of K4 kissing-loop reporter of at least 200 nM; FALSE for anything lower.

// below: answered sequences
CCUAUCUCAUACGAUACCAGUCAAUAUAAACGAGUGAUGUUCGAAAUAAUAUGCCAUCACGACCCUUGGCAGCGUAUGGGAUAGG [Ex Theophylline B K4 6]    TRUE
AGGACUCUUGUGGGUACGCAUCUAGCCGAUACCAGACUUCCAUAUGUCCCUUGGCAGCGGCAGUGAUGUUGUCGUUACGCCAUCA [theeternabot_exclusion_KL_Theo_A_34]    TRUE
CUUACCCAUCGGAUGGAUCAACUGCACACGAAGGAUAUACACACGGGUAGAAGGUCGGGAUUCCAGUGAUGUUGGAUGGUACGAC [theeternabot_exclusion_KL_FMN_A_29]    FALSE
CGCAAGCAGCCAGUGAUGUUGGCCGCCUUGCGAGGACCGGUACGGCCGCCACUCGAAGGCGGCUACUGGUAAACCGUCUAACGGA [Oronorenma]    FALSE
GUAUCGCUAGGAGGAUAUUUCAAAUCGCCAAUAAAUGGUGAUACGGAGUGAUGUUCCGAUUUACGGAAAGAAGGCCUAGUGAUAC [FMN B 6]    TRUE
UUCAGUGAUGUUGAACACUGUUGUAUAAACUAGGAUAUGCUGAUAAGCAGAAGGAGUGAUGUUCCGUUCAACAUCAGAAUUAAAU [#08 K4 FMN A Exclusion]    TRUE

State whether the measured apparent KD of K4 kissing-loop reporter reaches 200 nM, counting equality as reaching it, for GUAAGACCGGGACUCCAGUGAUGUUGGAGGCAGGAUAUCCAGUCGAGGAGAAGGGCCAGGGAUAUCGAGCUGCUCGGUUUGUAGU [Argeis]
FALSE

====

System: MS2 coat protein
Test: apparent KD of MS2 coat protein; designed switch direction (-1 OFF switch, 1 ON switch): -1; higher = weaker reporter binding
Conditions: input ligand: microRNA oligo, concentration not stated
Outcome: T for apparent KD of MS2 coat protein of at least 30 nM; F for anything lower.

GAACUGAGGCAAAGCUUUAGUCGUACAUGAGGAUCACCCAUGUAGGAUAUGGUAGGCUUUGCUUACCAGAAGGACAGAGUGAUC [Mat - Exclusion NG 3 - Mod of JL - D59] (Eterna round: R96, puzzle: Exclusion NG 3)    T
GCGCCAUCGUGAGAUGGCGUAUAUACAUGAGGAUCACCCAUGUAGGAUAUCGAUUGCUUUGCAGUCGAGAAGGGCAUGUAAUUU [JL ENG3 3.93] (Eterna round: R96, puzzle: Exclusion NG 3)    F
GCGGAGUCGAUCGUGAGAUCGGAGACAUGAGGAUCACCCAUGUAGGAUAUCGAUUGCUUUGCAGUCGAGAAGGGCGUGCUCCGC [JL denovo 18] (Eterna round: R96, puzzle: Exclusion NG 3)    F

State whether the measured apparent KD of MS2 coat protein reaches 30 nM, counting equality as reaching it, for UUAUUAAUUAAUAUUAUAAGAUCACAUGAGGAUCACCCAUGUCAGGAUAUCAGCUCGAUUAGAGCUGAGAAGGGACAAAUAAUA [ExNG3/15-B1] (Eterna round: R96, puzzle: Exclusion NG 3)
T

State whether the measured apparent KD of MS2 coat protein reaches 30 nM, counting equality as reaching it, for GGUUGGCGAGGAUAUACAUGAGGAUCACCCAUGUGAGAGAAAAAAGUGAGAACGAAAAGUAGAAGGCGCUGACG [salish99-ex3-25] (Eterna round: R96, puzzle: Exclusion 3)
T

State whether the measured apparent KD of MS2 coat protein reaches 30 nM, counting equality as reaching it, for UUAAAUCAUGUAGGAUAUGCAUAGCGAAGCUAUGCAGAAGGACAUGAGGAUCACCCAUGUGCUUGCGUCCGCGUACGGAUGCUA [Mat - Exclusion NG 1 - Mod of JL - D67] (Eterna round: R96, puzzle: Exclusion NG 1)
T

State whether the measured apparent KD of MS2 coat protein reaches 30 nM, counting equality as reaching it, for AAGGGUACUUUCGGAACGACAUGAGGAUCACCCAUGUAUACUGAGGAUAUCUACUACUAAGGACGGGAGAAGGCAGUGUAAUGU [Ex NG3 #77] (Eterna round: R96, puzzle: Exclusion NG 3)
F
